pIC50: −log10 of the molar value.
Reported pIC50 values, purified human HDAC6 (Homo sapiens, UniProt Q9UBN7).

Here is how some compounds turned out for pIC50.
[[record]]
compound = "COc1cc(OC)nc(C(=O)N2CCc3cc(C(=O)NO)sc3C2)n1 [Compound 100]"
readout_type = "pIC50"
result = "7.00 to 7.30"

[[record]]
compound = "CC(C)(C)OC(=O)N1CCc2sc(C(=O)NO)cc2C1 [Compound 212]"
readout_type = "pIC50"
result = "> 7.30"

[[record]]
compound = "Cc1cc(C(=O)N2CCc3cc(C(=O)NO)sc3C2)ccc1F [Compound 51]"
readout_type = "pIC50"
result = "> 7.30"

[[record]]
compound = "O=C(NO)c1cc2c(s1)CN(C(=O)CSc1cccc(C(F)(F)F)c1)CC2 [Compound 89]"
readout_type = "pIC50"
result = "> 7.30"

[[record]]
compound = "COc1ccc(C(=O)N2Cc3cc(C(=O)NO)sc3C(C)(C)C2)cc1 [Compound 214]"
readout_type = "pIC50"
result = "< 6.00"


(Q) # pIC50 lookup, item CCCCc1ccc(NC(=O)N2CCc3cc(C(=O)NO)sc3C2)cc1 [Compound 169]
(A) > 7.30

(Q) How about Cn1nc(C(C)(C)C)cc1C(=O)N1CCc2cc(C(=O)NO)sc2C1 [Compound 88] ?
(A) > 7.30

(Q) How about O=C(NO)c1cc2c(s1)CN(C(=O)C1CCCCN1S(=O)(=O)c1ccccc1)CC2 (stereo not drawn) [Compound 15] ?
(A) 7.00 to 7.30

(Q) How about Cc1nc(-c2ccccn2)sc1C(=O)N1CCc2sc(C(=O)NO)c(C)c2C1 [Compound 199] ?
(A) 7.00 to 7.30
